# protocolSummary: GLP Aggregation Assay (time to onset of aggregation, turbidity at 350 nm)
# Format: physicochemical
# condition: 0.3 mg/mL in 10 mM citrate, 10 mM phosphate, 150 mM NaCl, pH 7.4 to 7.5, 37° C., stirred, turbidity at 350 nm
Can you tell me Aggregation Time for the items I'm about to list?
Dear colleague, please return just the value in h, with no unit written.

// Aggregation Time lookup, key: Val^8-Gly^33-GLP-1(7-37)OH (HVEGTFTSDVSSYLEGQAAKEFIAWLGKGRG)
9

// Aggregation Time lookup, key: Val^8-His^24-GLP-1(7-37)OH (HVEGTFTSDVSSYLEGQHAKEFIAWLVKGRG)
3

// Aggregation Time lookup, key: Val^8-Ser^30-GLP-1(7-37)OH (HVEGTFTSDVSSYLEGQAAKEFISWLVKGRG)
8

// Aggregation Time lookup, key: Val^8-Ala^27-GLP-1(7-37)OH (HVEGTFTSDVSSYLEGQAAKAFIAWLVKGRG)
2

// Aggregation Time lookup, key: Val^8-Lys^22-Glu^30-GLP-1(7-37)OH (HVEGTFTSDVSSYLEKQAAKEFIEWLVKGRG)
4

// Aggregation Time lookup, key: Val^8-Ala^33-GLP-1(7-37)OH (HVEGTFTSDVSSYLEGQAAKEFIAWLAKGRG)
20

// Aggregation Time lookup, key: Val^8-Glu^30-GLP-1(7-37)OH (HVEGTFTSDVSSYLEGQAAKEFIEWLVKGRG)
30

// Aggregation Time lookup, key: Val^8-His^36-GLP-1(7-37)OH (HVEGTFTSDVSSYLEGQAAKEFIAWLVKGHG)
8

// Aggregation Time lookup, key: Val^8-Ala^22-GLP-1(7-37)OH (HVEGTFTSDVSSYLEAQAAKEFIAWLVKGRG)
19

// Aggregation Time lookup, key: Val^8-Lys^24-GLP-1(7-37)OH (HVEGTFTSDVSSYLEGQKAKEFIAWLVKGRG)
22

###

# System: GLP-1 receptor
# protocolSummary: GLP-1 receptor activation, in vitro assays
# Format: cell-based
# condition: activity relative to the activity of GLP-1(7-37)OH
Where no end group is shown, it is not given here.
Can you tell me GLP-1 Receptor Activation for the items I'm about to list?
Please give the numeric answer without any surrounding text.

// GLP-1 Receptor Activation lookup, key: Val^8-Lys^11-GLP-1(7-37)OH (HVEGKFTSDVSSYLEGQAAKEFIAWLVKGRG)
0.001

// GLP-1 Receptor Activation lookup, key: Val^8-Lys^22-Glu^23-GLP-1(7-37)OH (HVEGTFTSDVSSYLEKEAAKEFIAWLVKGRH)
0.35

// GLP-1 Receptor Activation lookup, key: Val^8-His^24-GLP-1(7-37)OH (HVEGTFTSDVSSYLEGQHAKEFIAWLVKGRG)
0.007

// GLP-1 Receptor Activation lookup, key: Val^8-Glu^22-GLP-1(7-36)NH2 (HVEGTFTSDVSSYLEEQAAKEFIAWLVKGR-NH2)
1.0

// GLP-1 Receptor Activation lookup, key: Val^8-His^22-GLP-1(7-37)OH (HVEGTFTSDVSSYLEHQAAKEFIAWLVKGRG)
0.14

// GLP-1 Receptor Activation lookup, key: Gly^8-His^11-GLP-1(7-37)OH (HGEGHFTSDVSSYLEGQAAKEFIAWLVKGRG)
0.282

// GLP-1 Receptor Activation lookup, key: Val^8-Glu^22-Gln^23-GLP-1(7-37)OH (HVEGTFTSDVSSYLEEQAAKEFIAWLVKGRG)
0.47

// GLP-1 Receptor Activation lookup, key: Val^8-His^35-GLP-1(7-37)OH (HVEGTFTSDVSSYLEGQAAKEFIAWLVKHRG)
0.41
